Conditions: in PEGDME 250, 313.15 K
Property Name: solubility (mole fraction)

a. CC(=O)Nc1ccc(O)cc1
b. O=C(O)c1ccccc1O
Please choose the item with the lower solubility (mole fraction) value from this pair: a and b Reply briefly: the label of your chosen item.
a

###

Conditions: in water, 313.15 K
Property Name: solubility (mole fraction)

1. O=C(O)c1ccccc1O
2. CC(=O)Nc1ccc(O)cc1
Consider entries 1 and 2 . Which has the numerically lower solubility (mole fraction)? Give the chosen item's label as your response.
1

###

Conditions: in PEGDME 250, 293.15 K
Property Name: solubility (mole fraction)

A. CC(=O)Nc1ccc(O)cc1
B. O=C(O)c1ccccc1O
For the pair A and B , which entry has the numerically smaller recorded solubility (mole fraction)? Label of pick, please.
A
(A: 0.15, B: 0.347)
